# STUDY SYSTEM: FGFR3 (UniProt P22607)
# Sequence (P22607 whole entry, looked up): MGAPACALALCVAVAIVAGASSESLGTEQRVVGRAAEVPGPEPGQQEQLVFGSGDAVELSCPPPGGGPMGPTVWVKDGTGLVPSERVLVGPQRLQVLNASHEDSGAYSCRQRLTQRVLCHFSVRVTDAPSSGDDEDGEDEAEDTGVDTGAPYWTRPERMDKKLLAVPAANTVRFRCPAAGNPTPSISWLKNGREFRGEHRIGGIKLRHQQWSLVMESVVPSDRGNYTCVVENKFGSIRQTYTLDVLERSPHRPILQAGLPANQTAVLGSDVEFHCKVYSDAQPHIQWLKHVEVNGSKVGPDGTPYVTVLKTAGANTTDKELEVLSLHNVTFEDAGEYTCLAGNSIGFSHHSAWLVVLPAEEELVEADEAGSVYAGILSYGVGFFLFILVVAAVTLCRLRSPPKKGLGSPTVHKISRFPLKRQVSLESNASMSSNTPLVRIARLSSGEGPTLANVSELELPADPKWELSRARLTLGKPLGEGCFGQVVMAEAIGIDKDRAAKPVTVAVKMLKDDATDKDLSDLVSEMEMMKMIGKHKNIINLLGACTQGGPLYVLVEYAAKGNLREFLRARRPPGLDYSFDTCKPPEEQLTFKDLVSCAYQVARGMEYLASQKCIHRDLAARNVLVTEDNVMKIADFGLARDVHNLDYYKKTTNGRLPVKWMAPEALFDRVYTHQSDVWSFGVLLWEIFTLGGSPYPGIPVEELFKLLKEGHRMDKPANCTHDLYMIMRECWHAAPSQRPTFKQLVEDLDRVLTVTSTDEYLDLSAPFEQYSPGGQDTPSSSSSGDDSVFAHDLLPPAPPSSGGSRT
# EXPERIMENT SUMMARY: phosphorylation enrichment, bacterial display (enrichment ratio); higher = better substrate or ligand; peptides without Tyr show the background;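 note: 11-residue human phosphosite peptides and single-mutation variants displayed on the E. coli surface, counted by deep sequencing, each peptide's frequency after selection divided by its frequency in the unselected input library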;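 note: frequency after pTyr selection over input frequency; kinase dosed for 20-30% of maximal phosphorylation in three min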
Classify on phosphorylation enrichment using low end (below 0.6), middle (0.6 to below 0.8), high end (0.8 or more)

[[record]]
ordered_residues = "TWEKPYECVQC [ZNF24_Y335_G331W]"
category_label = "middle"

[[record]]
ordered_residues = "AGADGYDFLAP [FOXL2_Y186_G187D_YF]"
category_label = "middle"

[[record]]
ordered_residues = "SLDHPFEKPRK [INAVA_Y333_Y333F]"
category_label = "low end"

[[record]]
ordered_residues = "EVASVYESFQP [MAVS_Y92_Q93E_YF]"
category_label = "high end"

[[record]]
ordered_residues = "FGGTVCHSPVS [PRC1_Y511_Y511C]"
category_label = "low end"

[[record]]
ordered_residues = "QRASDYFSQQM [GBP6_Y333_A331S_YF]"
category_label = "high end"

[[record]]
ordered_residues = "QTEAPYRFIFM [PTPN11_Y511_Q510P_YF]"
category_label = "high end"

[[record]]
ordered_residues = "WHFTFYNELRV [ACTC1_Y93_H90Y_YF]"
category_label = "high end"

[[record]]
ordered_residues = "KGELRYMHSPV [ABCD1_Y281_R285P]"
category_label = "low end"

[[record]]
ordered_residues = "KDHPDYKYQAR [SOX10_Y171_P175A]"
category_label = "low end"

[[record]]
ordered_residues = "DFFDLYGGEKK [PTPN11_Y66_F71K_YF]"
category_label = "middle"

[[record]]
ordered_residues = "QKMADYSNKLH [PDPR_Y104_Y109H]"
category_label = "middle"


====

# STUDY SYSTEM: EPHB1 (UniProt P54762)
# Sequence (P54762 whole entry, looked up): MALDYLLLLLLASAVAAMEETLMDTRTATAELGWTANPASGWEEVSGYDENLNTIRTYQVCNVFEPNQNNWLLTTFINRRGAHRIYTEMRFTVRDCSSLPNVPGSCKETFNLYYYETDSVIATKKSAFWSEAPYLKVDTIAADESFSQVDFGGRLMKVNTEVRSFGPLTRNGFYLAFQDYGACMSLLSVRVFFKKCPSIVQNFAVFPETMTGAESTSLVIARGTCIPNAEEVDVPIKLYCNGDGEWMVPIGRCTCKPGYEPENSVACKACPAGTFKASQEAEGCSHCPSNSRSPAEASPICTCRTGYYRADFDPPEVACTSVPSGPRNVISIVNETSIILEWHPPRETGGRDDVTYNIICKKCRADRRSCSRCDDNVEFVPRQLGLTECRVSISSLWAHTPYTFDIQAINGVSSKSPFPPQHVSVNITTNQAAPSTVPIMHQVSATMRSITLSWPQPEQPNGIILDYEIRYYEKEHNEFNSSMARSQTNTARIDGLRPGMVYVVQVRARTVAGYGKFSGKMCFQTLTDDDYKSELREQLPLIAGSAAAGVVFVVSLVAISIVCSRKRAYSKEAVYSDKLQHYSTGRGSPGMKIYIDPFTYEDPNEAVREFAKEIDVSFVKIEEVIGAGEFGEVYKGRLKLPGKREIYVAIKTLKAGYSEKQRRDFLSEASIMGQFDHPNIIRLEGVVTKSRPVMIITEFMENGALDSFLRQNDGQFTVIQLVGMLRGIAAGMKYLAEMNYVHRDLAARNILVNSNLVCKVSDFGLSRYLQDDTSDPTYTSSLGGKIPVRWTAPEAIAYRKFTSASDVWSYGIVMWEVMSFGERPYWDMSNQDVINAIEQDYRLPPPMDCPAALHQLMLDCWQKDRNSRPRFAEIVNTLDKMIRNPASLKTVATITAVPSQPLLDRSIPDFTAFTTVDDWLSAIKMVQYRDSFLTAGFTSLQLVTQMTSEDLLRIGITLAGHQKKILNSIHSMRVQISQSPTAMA
# EXPERIMENT SUMMARY: phosphorylation enrichment, bacterial display (enrichment ratio); higher = better substrate or ligand; peptides without Tyr show the background
MEASURED METRIC: phosphorylation enrichment

[[record]]
ordered_residues = "TKDTFYKQPVF [GBA_Y451_M455V]"
meas_value = 0.409

[[record]]
ordered_residues = "GLSAPYVKIHL [SYT2_Y309_D307A]"
meas_value = 0.426

[[record]]
ordered_residues = "AEQEEYSAMRD [NRAS_Y64_G60E]"
meas_value = 0.541

[[record]]
ordered_residues = "CEHRGSLYLAI [TEK_Y897_Y897S]"
meas_value = 0.714

[[record]]
ordered_residues = "FGGTVCHSPVS [PRC1_Y511_Y511C]"
meas_value = 0.38

[[record]]
ordered_residues = "RVDRDYVLKSA [HTATIP2_Y111]"
meas_value = 0.487

[[record]]
ordered_residues = "AVVEPYNSILT [TUBA1A_Y185]"
meas_value = 0.489

[[record]]
ordered_residues = "TLERHYEELQA [SPTBN2_Y834]"
meas_value = 0.648

[[record]]
ordered_residues = "TTPYNYSYIFK [RAB14_Y8_A4T]"
meas_value = 9.01

[[record]]
ordered_residues = "LGSNTYPFLLT [SAG_Y120]"
meas_value = 0.77

[[record]]
ordered_residues = "NVQIVYKPVDL [MAPT_Y627_S622N]"
meas_value = 0.507

[[record]]
ordered_residues = "QDTSRYTVSNL [BIRC3_Y245]"
meas_value = 0.675

[[record]]
ordered_residues = "AKLVQYFMEHH [PTPN11_Y80_E76K_YF]"
meas_value = 0.462

[[record]]
ordered_residues = "CTTIHYNFMGN [TP53_Y234_C238G_YF]"
meas_value = 0.565


Origin of the recorded values: the supplement of paper PMC10065799
